biological target: beta-lactamase class D OXA-48 (Klebsiella pneumoniae, UniProt Q6XEC0); format: biochemical; settings: Meropenem 20.0 mg/L, second β-lactam 200.0 mg/L (10 times excess), replicate 5
Sequence (Q6XEC0 23-265 limits assumed): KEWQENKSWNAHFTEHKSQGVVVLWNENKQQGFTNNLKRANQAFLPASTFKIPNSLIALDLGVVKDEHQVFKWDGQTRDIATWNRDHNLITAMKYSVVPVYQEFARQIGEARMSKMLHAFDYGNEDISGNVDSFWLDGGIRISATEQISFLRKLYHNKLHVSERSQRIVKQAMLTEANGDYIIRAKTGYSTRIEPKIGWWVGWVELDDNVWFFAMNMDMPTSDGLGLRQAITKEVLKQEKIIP
Answer each item with its documented [Meropenem] Replicate 5.
Please respond with the number in mg/L and leave the unit unwritten.

Task item: Value wanted: [Meropenem] Replicate 5 (beta-lactamase class D OXA-48 (Klebsiella pneumoniae, UniProt Q6XEC0)) of entry CO/N=C(\C(=O)N[C@@H]1C(=O)N2C(C(=O)O)=C(CSc3nc(=O)c(O)nn3C)CS[C@H]12)c1csc(N)n1 [Ceftria ®]
Reply: 20.4

Task item: Value wanted: [Meropenem] Replicate 5 (beta-lactamase class D OXA-48 (Klebsiella pneumoniae, UniProt Q6XEC0)) of entry Cn1nnnc1SCC1=C(C(=O)O)N2C(=O)[C@@H](NC(=O)[C@H](O)c3ccccc3)[C@H]2SC1 [Cefamandole ®, Cefamandole]
Reply: 21.0

Task item: Value wanted: [Meropenem] Replicate 5 (beta-lactamase class D OXA-48 (Klebsiella pneumoniae, UniProt Q6XEC0)) of entry CC1(C)S[C@@H]2[C@H](NC(=O)[C@H](C(=O)O)c3ccsc3)C(=O)N2[C@H]1C(=O)O [Ticarpen ®]
Reply: 21.9

Task item: Value wanted: [Meropenem] Replicate 5 (beta-lactamase class D OXA-48 (Klebsiella pneumoniae, UniProt Q6XEC0)) of entry Cc1onc(-c2ccccc2)c1C(=O)N[C@@H]1C(=O)N2[C@@H]1SC(C)(C)[C@@H]2C(=O)O [Penstapho ®]
Reply: 22.7

Task item: Value wanted: [Meropenem] Replicate 5 (beta-lactamase class D OXA-48 (Klebsiella pneumoniae, UniProt Q6XEC0)) of entry C[C@@H](O)[C@H]1C(=O)N2C(C(=O)O)=C(S[C@@H]3CN[C@H](C(=O)N(C)C)C3)[C@H](C)[C@H]12 [Meropenem, meropenem]
Reply: 19.6

Task item: Value wanted: [Meropenem] Replicate 5 (beta-lactamase class D OXA-48 (Klebsiella pneumoniae, UniProt Q6XEC0)) of entry CO/N=C(\C(=O)N[C@@H]1C(=O)N2C(C(=O)O)=C(COC(N)=O)CS[C@H]12)c1ccco1 [Zinacef ®]
Reply: 22.0

Task item: Value wanted: [Meropenem] Replicate 5 (beta-lactamase class D OXA-48 (Klebsiella pneumoniae, UniProt Q6XEC0)) of entry CC1(C)S[C@@H]2[C@H](NC(=O)[C@H](N)c3ccccc3)C(=O)N2[C@H]1C(=O)O [Pentrexyl ®]
Reply: 21.8

Task item: Value wanted: [Meropenem] Replicate 5 (beta-lactamase class D OXA-48 (Klebsiella pneumoniae, UniProt Q6XEC0)) of entry CC(C)(O/N=C(\C(=O)N[C@@H]1C(=O)N2C(C(=O)[O-])=C(C[n+]3ccccc3)CS[C@H]12)c1csc(N)n1)C(=O)O [Ceftazidime]
Reply: 20.0

Task item: Value wanted: [Meropenem] Replicate 5 (beta-lactamase class D OXA-48 (Klebsiella pneumoniae, UniProt Q6XEC0)) of entry CO/N=C(\C(=O)N[C@@H]1C(=O)N2C(C(=O)O)=C(COC(C)=O)CS[C@H]12)c1csc(N)n1 [Cefotaxim ® Sandoz]
Reply: 20.2

* * *

molecular target: beta-lactamase class D OXA-48 (Klebsiella pneumoniae, UniProt Q6XEC0); type: biochemical; details: Meropenem 20.0 mg/L, second β-lactam 200.0 mg/L (10 times excess), replicate 3
MEASURE: [Meropenem] Replicate 3 (mg/L)
Please respond with the number in mg/L and leave the unit unwritten.

Task item: Data request, read-out [Meropenem] Replicate 3, for Cc1onc(-c2ccccc2)c1C(=O)N[C@@H]1C(=O)N2[C@@H]1SC(C)(C)[C@@H]2C(=O)O [Penstapho ®]
Reply: 23.1

Task item: Data request, read-out [Meropenem] Replicate 3, for C[C@@H](O)[C@H]1C(=O)N2C(C(=O)O)=C(S[C@@H]3CN[C@H](C(=O)N(C)C)C3)[C@H](C)[C@H]12 [Meropenem, meropenem]
Reply: 19.8

Task item: Data request, read-out [Meropenem] Replicate 3, for CO/N=C(\C(=O)N[C@@H]1C(=O)N2C(C(=O)O)=C(CSc3nc(=O)c(O)nn3C)CS[C@H]12)c1csc(N)n1 [Ceftria ®]
Reply: 21.4

Task item: Data request, read-out [Meropenem] Replicate 3, for CO/N=C(\C(=O)N[C@@H]1C(=O)N2C(C(=O)O)=C(COC(N)=O)CS[C@H]12)c1ccco1 [Zinacef ®]
Reply: 21.2

Task item: Data request, read-out [Meropenem] Replicate 3, for Cn1nnnc1SCC1=C(C(=O)O)N2C(=O)[C@@H](NC(=O)[C@H](O)c3ccccc3)[C@H]2SC1 [Cefamandole ®, Cefamandole]
Reply: 22.2

Task item: Data request, read-out [Meropenem] Replicate 3, for CO/N=C(\C(=O)N[C@@H]1C(=O)N2C(C(=O)O)=C(COC(C)=O)CS[C@H]12)c1csc(N)n1 [Cefotaxim ® Sandoz]
Reply: 20.2

Task item: Data request, read-out [Meropenem] Replicate 3, for CC1(C)S[C@@H]2[C@H](NC(=O)[C@H](C(=O)O)c3ccsc3)C(=O)N2[C@H]1C(=O)O [Ticarpen ®]
Reply: 23.1

Task item: Data request, read-out [Meropenem] Replicate 3, for CC1(C)S[C@@H]2[C@H](NC(=O)[C@H](N)c3ccccc3)C(=O)N2[C@H]1C(=O)O [Pentrexyl ®]
Reply: 21.4

Task item: Data request, read-out [Meropenem] Replicate 3, for CC(C)(O/N=C(\C(=O)N[C@@H]1C(=O)N2C(C(=O)[O-])=C(C[n+]3ccccc3)CS[C@H]12)c1csc(N)n1)C(=O)O [Ceftazidime]
Reply: 20.1

* * *

target: beta-lactamase class D OXA-48 (Klebsiella pneumoniae, UniProt Q6XEC0); format: biochemical; details: Meropenem 1.2 mg/L, second β-lactam 10.0 mg/L (8.4 times excess), replicate 3
Answer each item with its documented Accuracy Replicate 3.
Please respond with the number in % and leave the unit unwritten.

Task item: Data request, read-out Accuracy Replicate 3, for CO/N=C(\C(=O)N[C@@H]1C(=O)N2C(C(=O)O)=C(COC(N)=O)CS[C@H]12)c1ccco1 [Zinacef ®]
Reply: 100

Task item: Data request, read-out Accuracy Replicate 3, for CC(C)(O/N=C(\C(=O)N[C@@H]1C(=O)N2C(C(=O)[O-])=C(C[n+]3ccccc3)CS[C@H]12)c1csc(N)n1)C(=O)O [Ceftazidime]
Reply: 108

Task item: Data request, read-out Accuracy Replicate 3, for Cn1nnnc1SCC1=C(C(=O)O)N2C(=O)[C@@H](NC(=O)[C@H](O)c3ccccc3)[C@H]2SC1 [Cefamandole ®, Cefamandole]
Reply: 114

Task item: Data request, read-out Accuracy Replicate 3, for CO/N=C(\C(=O)N[C@@H]1C(=O)N2C(C(=O)O)=C(COC(C)=O)CS[C@H]12)c1csc(N)n1 [Cefotaxim ® Sandoz]
Reply: 107

Task item: Data request, read-out Accuracy Replicate 3, for CC1(C)S[C@@H]2[C@H](NC(=O)[C@H](N)c3ccccc3)C(=O)N2[C@H]1C(=O)O [Pentrexyl ®]
Reply: 110

Task item: Data request, read-out Accuracy Replicate 3, for Cc1onc(-c2ccccc2)c1C(=O)N[C@@H]1C(=O)N2[C@@H]1SC(C)(C)[C@@H]2C(=O)O [Penstapho ®]
Reply: 121

Task item: Data request, read-out Accuracy Replicate 3, for CC1(C)S[C@@H]2[C@H](NC(=O)[C@H](C(=O)O)c3ccsc3)C(=O)N2[C@H]1C(=O)O [Ticarpen ®]
Reply: 102

Task item: Data request, read-out Accuracy Replicate 3, for CO/N=C(\C(=O)N[C@@H]1C(=O)N2C(C(=O)O)=C(CSc3nc(=O)c(O)nn3C)CS[C@H]12)c1csc(N)n1 [Ceftria ®]
Reply: 112

Task item: Data request, read-out Accuracy Replicate 3, for C[C@@H](O)[C@H]1C(=O)N2C(C(=O)O)=C(S[C@@H]3CN[C@H](C(=O)N(C)C)C3)[C@H](C)[C@H]12 [Meropenem, meropenem]
Reply: 97

* * *

target: beta-lactamase class D OXA-48 (Klebsiella pneumoniae); assay type: biochemical; details: Meropenem 20.0 mg/L, second β-lactam 200.0 mg/L (10 times excess), replicate 5
MEASURE: Accuracy Replicate 5 (%)
Please respond with the number in % and leave the unit unwritten.

Task item: Data request, read-out Accuracy Replicate 5, for Cc1onc(-c2ccccc2)c1C(=O)N[C@@H]1C(=O)N2[C@@H]1SC(C)(C)[C@@H]2C(=O)O [Penstapho ®]
Reply: 102

Task item: Data request, read-out Accuracy Replicate 5, for Cn1nnnc1SCC1=C(C(=O)O)N2C(=O)[C@@H](NC(=O)[C@H](O)c3ccccc3)[C@H]2SC1 [Cefamandole ®, Cefamandole]
Reply: 94

Task item: Data request, read-out Accuracy Replicate 5, for CO/N=C(\C(=O)N[C@@H]1C(=O)N2C(C(=O)O)=C(COC(N)=O)CS[C@H]12)c1ccco1 [Zinacef ®]
Reply: 99

Task item: Data request, read-out Accuracy Replicate 5, for CC1(C)S[C@@H]2[C@H](NC(=O)[C@H](N)c3ccccc3)C(=O)N2[C@H]1C(=O)O [Pentrexyl ®]
Reply: 98

Task item: Data request, read-out Accuracy Replicate 5, for CO/N=C(\C(=O)N[C@@H]1C(=O)N2C(C(=O)O)=C(COC(C)=O)CS[C@H]12)c1csc(N)n1 [Cefotaxim ® Sandoz]
Reply: 91
